experiment: chemical genetic growth profiling, strain panel (AID 1159580);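 also: tested at 20 µM; growth read once vehicle control cultures reached saturation at 30 °C; 1 = growth at the plate median or of vehicle wells; lower values mean less growth of the strain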; conditions: S. cerevisiae deletion strains, growth OD, locus YLR262C, strain YPT6
Screen size: about 5,500 compounds; about 2,000 (36%) were called active. Another 18% or so got no clear call; they are omitted. Rule as the data show it: active = normalized growth mostly below about 0.91 (no sharp cut-off); inconclusive = no clear call, values can overlap the other calls; inactive = mostly above about 0.92. The list shows a part of the results.
# output must be one of active, inactive

* FC(F)(F)c1cc(-c2ccc(Cl)cc2)nc2cc(C3CC3)nn12 | inactive
* CNC(C)(C)Cc1ccccc1 | inactive
* CC(=O)OC1CCC23CC1(C)CCC2C(C)(C)CC3OC(C)=O (configuration not stated) | inactive
* O=C1C=C(O)c2ccccc2C1=O | inactive
* Cn1cnc2c1c(=O)[nH]c(=O)n2C | inactive

Inquiry: Please indicate how the test categorized O=C1c2ccccc2C(=O)c2ccccc21 .
Reply text: inactive

Inquiry: Now give it for O=C(O)c1cccc([N+](=O)[O-])c1C(=O)Nc1ccc(F)cc1 too.
Reply text: active

Inquiry: Now give it for O=C(O)C1c2ccccc2C(=O)N(Cc2ccc3c(c2)OCO3)C1c1cccnc1 (configuration not stated) too.
Reply text: inactive

Inquiry: Now give it for COC(=O)c1cccc([N+](=O)[O-])c1-c1c(C(=O)OC)cccc1[N+](=O)[O-] too.
Reply text: inactive

Inquiry: Now give it for CC(C)[C@@H]1CC[C@@H](C)CC1=O too.
Reply text: inactive

Inquiry: Now give it for FC(F)(F)c1cc(-c2ccco2)nc2cc(-c3ccco3)nn12 too.
Reply text: inactive

Inquiry: Now give it for Cn1c(=O)[nH]c2nc[nH]c2c1=O too.
Reply text: inactive

* * *

Here the recorded normalized growth is given for each entry.
test: chemical genetic growth profiling, strain panel (AID 1159580); conditions: S. cerevisiae deletion strains, growth OD, locus YDL101C, strain DUN1, hits give low values
Out of some 5,500 compounds screened, about 2,000 (36%) were called active. Roughly 18% stayed inconclusive and do not appear here. The list shows a part of the results.

Here are 6 compounds together with their reported answers.
- Cc1ccc(O)c(C(CCN(C(C)C)C(C)C)c2ccccc2)c1 (configuration not stated): 1.01 (inactive)
- O=C(Nc1ccc(F)cc1)c1cc(Br)ccc1O: 0.952 (inactive)
- N=C(N)SCc1c(F)cccc1Cl: 0.968 (inactive)
- Clc1cc(Cl)cc(Br)c1: 1.02 (inactive)
- Nc1c(Cl)cc(C(=O)Nc2cc(Cl)cc(Cl)c2)cc1Cl: 1.02 (inactive)
- O=C(NNC(=O)c1ccc[nH]1)Nc1cc(Cl)cc(Cl)c1: 0.991 (inactive)

Turning to the following compound.
Inquiry: Please report the recorded normalized growth for CNC(=O)Oc1ccccc1OC(C)C .
Reply text: 1.02 (inactive)

* * *

assay: chemical genetic growth profiling, strain panel (AID 1159580); details: S. cerevisiae deletion strains, growth OD, locus YMR223W, strain ubp8, hits give low values
Among all 5,500 compounds or so, about 2,000 (36%) were called active. Inconclusive results (about 18%) are left out. The list shows a part of the results.
Please respond with criterion met when measured normalized growth is strictly beneath 1, and with criterion not met in all other cases.

• O=C(O)c1cc(O)c2c(c1)C(=O)c1cc(O)cc(O)c1C2=O = criterion met
• CC[C@H]1OC(=O)[C@H](C)[C@@H](O[C@H]2C[C@@](C)(OC)[C@@H](O)[C@H](C)O2)[C@H](C)[C@@H](O[C@@H]2O[C@H](C)C[C@H](N(C)C)[C@H]2O)[C@](C)(O)C[C@@H](C)/C(=N/OCOCCOC)[C@H](C)[C@@H](O)[C@]1(C)O = criterion not met
• O=C1c2cccc(O)c2C(=O)c2c(O)cccc21 = criterion met
• CC(=O)OC[C@@]1(O)C[C@@]23CCC4c5ccoc5CC[C@]4(C)C2CC[C@@H]1C3 (stereo partly specified) = criterion met

Inquiry: Threshold test, normalized growth < 1: O=C(/C=C/c1ccccc1)c1ccc(O[C@@H]2O[C@H](CO)[C@@H](O)[C@H](O)[C@H]2O)cc1O
Reply text: criterion met

Inquiry: Now give it for Cc1cc(O)c2c(c1)C(=O)c1cc(O)cc(O)c1C2=O too.
Reply text: criterion met

Inquiry: Now give it for CC(C)OC(=O)Nc1cccc(Cl)c1 too.
Reply text: criterion met

* * *

Here the recorded normalized growth is given for each entry.
assay: chemical genetic growth profiling, strain panel (AID 1159580); details: S. cerevisiae deletion strains, growth OD, locus YOR061W, strain CKA2, hits give low values
About 2,000 (36%) of roughly 5,500 compounds were called active. Another 18% or so got no clear call; they are omitted. The list shows a part of the results.
Could you keep your reply to the number by itself?

- COC(=O)c1cc(OC)c(=O)c2c(OC)c(OC)ccc2c1: 1
- Cc1cc(Sc2c([N+](=O)[O-])cc(C(F)(F)F)cc2[N+](=O)[O-])c(Cl)cc1Cl: 0.967
- O=C(Nc1ccc(F)cc1)c1cc(Br)ccc1O: 0.773
- O=C(Nc1ccc([N+](=O)[O-])cc1Cl)c1cc(Cl)ccc1O: 0.969
- O=C(Nc1cc(Cl)cc(Cl)c1)c1cc(Br)ccc1O: 0.749
- NNC(=O)c1oc2nc(-c3ccccc3)cc(-c3ccccc3)c2c1N: 0.958
- CC(=O)Nc1c(I)cc(I)c(C(=O)O)c1I: 1
- C[C@]12CC[C@@H](O)C[C@H]1CCc1ccccc12: 1.03
- CCCc1ncc(C[n+]2ccccc2C)c(N)n1: 1.01
- COc1cc2cccc(OC)c(=O)c2c(OC)c1OC: 1.02

Turning to the following compound.
Inquiry: Please report the recorded normalized growth for CCCCN(CC)c1c([N+](=O)[O-])cc(C(F)(F)F)cc1[N+](=O)[O-] .
Reply text: 1.01

* * *

experiment: chemical genetic growth profiling, strain panel (AID 1159580);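 also: tested at 20 µM; growth read once vehicle control cultures reached saturation at 30 °C; 1 = growth at the plate median or of vehicle wells; lower values mean less growth of the strain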; details: S. cerevisiae deletion strains, growth OD, locus YNL233W, strain BNI4
In all, about 5,500 compounds went through this assay and about 2,000 (36%) were called active. Not shown: some 18% with an inconclusive outcome. Cut-off read from the data, not from the text of the source: active = normalized growth mostly below about 0.91 (no sharp cut-off); inconclusive = no clear call, values can overlap the other calls; inactive = mostly above about 0.92. The list shows a part of the results.
# output must be one of yes (1) for active, no (0) for inactive

- CCC[C@@H]1C[C@@H](C(=O)N[C@H]([C@H]2O[C@H](SC)[C@H](O)[C@@H](O)[C@H]2O)[C@H](C)O)N(C)C1: no (0)
- C[C@]12CC[C@@H](O)C[C@H]1CCc1ccccc12: no (0)
- CC1=C(C(=O)O)N2C(=O)[C@@H](NC(=O)[C@@H](N)c3ccc(O)cc3)[C@H]2SC1: no (0)
- N[C@@H](C(=O)N[C@@H]1C(=O)N2C(C(=O)O)=C(Cl)CS[C@H]12)c1ccccc1: no (0)
- Cn1c(=O)c2c(ncn2CCO)n(C)c1=O: no (0)
- CN(C)CCC[C@@]1(c2ccc(F)cc2)OCc2cc(C#N)ccc21: no (0)

Inquiry: Please indicate how the test categorized CC(=O)NS(=O)(=O)c1ccc(N)cc1 .
Reply text: no (0)

* * *

assay: chemical genetic growth profiling, strain panel (AID 1159580);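 also: tested at 20 µM; growth read once vehicle control cultures reached saturation at 30 °C; 1 = growth at the plate median or of vehicle wells; lower values mean less growth of the strain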; details: S. cerevisiae deletion strains, growth OD, locus YJL168C, strain set2
In all, about 5,500 compounds went through this assay and about 2,000 (36%) were called active. About 18% were inconclusive and are not listed. No stated cut-off is given here; in the data, active means normalized growth mostly below about 0.91 (no sharp cut-off); inconclusive means no clear call, values can overlap the other calls; inactive means mostly above about 0.92. Some of the results follow.
# output must be one of active, inactive

- CC[C@H]1OC(=O)[C@H](C)[C@@H](O[C@H]2C[C@@](C)(OC)[C@@H](O)[C@H](C)O2)[C@H](C)[C@@H](O[C@@H]2O[C@H](C)C[C@H](N(C)C)[C@H]2O)[C@](C)(O)C[C@@H](C)/C(=N/OCOCCOC)[C@H](C)[C@@H](O)[C@]1(C)O: inactive
- O=C1c2cccc(O)c2C(=O)c2c(O)cccc21: active
- CC(C)C1CCC(C(=O)N[C@@H](Cc2ccccc2)C(=O)O)CC1 (some centres not stated): inactive
- COc1cc(Cc2cnc(N)nc2N)cc(OC)c1OC: inactive
- CNC(=O)Oc1cccc2c1OC(C)(C)C2: inactive

Inquiry: Please indicate how the test categorized O=c1c(O)c(-c2ccccc2)oc2cc(O)ccc12 .
Reply text: active

Inquiry: Now give it for OC[C@H]1O[C@@H](Oc2ccc(O)cc2)[C@H](O)[C@@H](O)[C@@H]1O too.
Reply text: inactive

* * *

assay: chemical genetic growth profiling, strain panel (AID 1159580);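 also: tested at 20 µM; growth read once vehicle control cultures reached saturation at 30 °C; 1 = growth at the plate median or of vehicle wells; lower values mean less growth of the strain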; conditions: S. cerevisiae deletion strains, growth OD, locus YPL106C, strain sse1, hits give low values
Hit rate of the full screen: of about 5,500 compounds, about 2,000 (36%) were called active. Another 18% or so got no clear call; they are omitted. Some of the results follow.
Measure Name: normalized growth
Could you keep your reply to the number by itself?

Here are 2 compounds together with their reported answers.
- Cn1c(=O)c2c(ncn2C)n(C)c1=O: 0.929
- CC1(C)CC23C(=O)CCC(O)C2(C)CCC13 (configuration not stated): 0.97

Inquiry: Please report the recorded normalized growth for Cc1cc2nc3c(=O)[nH]c(=O)nc-3n(CC(O)C(O)C(O)CO)c2cc1C (configuration not stated) .
Reply text: 0.951

Inquiry: Now give it for O=C(/C=C/c1ccc(O)cc1)c1ccccc1O too.
Reply text: 0.609

Inquiry: Now give it for CC(=O)CCCCn1c(=O)c2c(ncn2C)n(C)c1=O too.
Reply text: 1.03

Inquiry: Now give it for Cn1cnc2c1c(=O)[nH]c(=O)n2C too.
Reply text: 0.954
